Sourced from the RNAGym collection of RNA variant scans (doi:10.7554/elife.80360)

B1: Twister Ribozyme (parent)
chain: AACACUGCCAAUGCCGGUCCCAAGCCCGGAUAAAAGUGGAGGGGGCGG

Variants of: B1
protocol description: self-cleavage, relative activity (ratio to wild type); higher = more cleavage; co-transcriptional
Measured self-cleavage values are reported for all entries that follow.

As a guide, the following entries are already answered.
AACACGGCCAAUGCCGGUCCCAAGCCCGGAUAAAAGUGGAGGGAGCGG	0.229
AACACAGCCAAUGCCGGUCCAAAGCCCGGAUAAAAGUGGAGGGGGCGG	0.107
AACACUGCCAAUGCCGGUUCCAAGCCCGGAUAAAUGUGGAGGGGGCGG	0.972
AUCACUGCCAAUGCCGAUCCCAAGCCCGGAUAAAAGUGGAGGGGGCGG	0.131
AACACUGCCAAUGCCGGUCCCAAGCCCGGUCAAAAGUGGAGGGGGCGG	1.02
AACACUGCCAAUGCUGGUCCCAAGCCCGGAUAAAAGCGGAGGGGGCGG	0.295

Input: Look up self-cleavage for this variant: AUCACUGCCAAUGCCGGUUCCAAGCCCGGAUAAAAGUGGAGGGGGCGG
Output: 0.163

Input: Follow-up item: AACACUGCCAAUGCCGGACCCAAGCCCCGAUAAAAGUGGAGGGGGCGG
Output: 0.185

Input: Follow-up item: AACACUGCCAAUGCCGGUGCCAAGCCCGGAUAAAAGUGGACGGGGCGG
Output: 0.136
